All values here come from patent US20110015122.

assay-system: ZFPa (synthetic)
Sequence (chain, as listed by the source): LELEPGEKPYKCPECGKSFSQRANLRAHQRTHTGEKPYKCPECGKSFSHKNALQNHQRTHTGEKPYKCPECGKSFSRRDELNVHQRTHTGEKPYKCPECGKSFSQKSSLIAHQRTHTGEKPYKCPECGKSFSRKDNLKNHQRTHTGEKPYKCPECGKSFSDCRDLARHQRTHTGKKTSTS
measurement-protocol: SPR; HBS-EP, 1:1 with drifting baseline
cond: tags: MBP fusion (pMAL); label: 5'-biotin sense strand (SPR)
observation-type: pKd
Answers are plain numbers, as −log10 of the molar value.

Exercise: Please report the recorded pKd for ZFPa target oligo (dsDNA) DNA 1: AGTACTGCCAAGATAATGATTAAAAGTACT DNA 2: AGTACTTTTAATCATTATCTTGGCAGTACT .
Key: 7.91
